- TGT: TRKC(G623R) (Homo sapiens, UniProt Q16288, G623R)
- Construct: purchased SignalChem N18-12CH-10
- Sequence (Q16288 32-839 G623R): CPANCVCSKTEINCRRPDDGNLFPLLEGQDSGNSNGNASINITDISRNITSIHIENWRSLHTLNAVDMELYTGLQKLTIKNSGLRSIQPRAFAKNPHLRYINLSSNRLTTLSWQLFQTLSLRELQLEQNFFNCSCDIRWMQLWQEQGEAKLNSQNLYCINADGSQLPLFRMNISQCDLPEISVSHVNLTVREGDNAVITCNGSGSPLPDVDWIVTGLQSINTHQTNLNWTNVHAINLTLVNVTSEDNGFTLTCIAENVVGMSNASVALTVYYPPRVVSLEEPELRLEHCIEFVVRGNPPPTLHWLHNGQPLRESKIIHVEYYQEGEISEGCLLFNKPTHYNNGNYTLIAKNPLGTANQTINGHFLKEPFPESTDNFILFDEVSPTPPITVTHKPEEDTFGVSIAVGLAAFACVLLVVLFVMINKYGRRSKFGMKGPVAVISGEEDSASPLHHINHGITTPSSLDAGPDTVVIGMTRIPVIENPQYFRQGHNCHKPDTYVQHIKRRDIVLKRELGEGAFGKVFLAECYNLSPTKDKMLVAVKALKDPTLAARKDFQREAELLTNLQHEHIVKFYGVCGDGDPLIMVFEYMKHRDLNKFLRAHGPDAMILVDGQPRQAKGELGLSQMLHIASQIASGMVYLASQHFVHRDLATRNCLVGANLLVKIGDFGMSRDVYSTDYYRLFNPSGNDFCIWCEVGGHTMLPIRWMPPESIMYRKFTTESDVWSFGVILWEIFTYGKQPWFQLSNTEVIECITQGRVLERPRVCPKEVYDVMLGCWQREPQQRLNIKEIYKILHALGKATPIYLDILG
- TEST_DESCRIPTION: HTRF KinEASE-TK kinase activity inhibition assay, TRKC(G623R)
- Format: biochemical
- CONDITION_SET: ATP 100 µM
EXPERIMENTAL_READOUT: IC50 (nM)

C[C@H]1Nc2ccn3ncc(c3n2)C(=O)NCC2(C)Cc3cc(F)cc1c3O2 (stereo partly shown); 14.5

P = C[C@H]1Nc2ccn3ncc(c3n2)C(=O)NC[C@@]2(C)Cc3cc(F)cc1c3O2
Q = C[C@H]1Nc2ccn3ncc(c3n2)C(=O)NC[C@@H]2COc3cc(F)cc1c3O2
R = C[C@H]1Nc2ccn3ncc(c3n2)C(=O)NCC2(C)Cc3cc(Cl)cc1c3O2 (stereo partly shown)
Prompt line: Place the items in sequence of falling IC50. API: response body holds the labels in the requested order.
Response line: Q, P, R
(Q: 25.3 nM, P: 13.5 nM, R: 7.4 nM)

----------
- TEST_DESCRIPTION: Pharmacokinetic study on ICR mice (plasma, LC-MS/MS)
- Type: in vivo
- CONDITION_SET: male, mouse, intravenous, 1 mg/kg, injection, read-out: Clearance rate
EXPERIMENTAL_READOUT: clearance (mL/min/kg)

C[C@H]1Nc2ccn3nc(N)c(c3n2)C(=O)NC[C@@]2(C)Cc3cc(F)cc1c3O2; 8.11
C[C@H]1Nc2ccn3ncc(c3n2)C(=O)NC[C@@]2(C)Cc3cc(F)cc1c3O2; 7.9

1 = C[C@H]1Nc2ccn3ncc(c3n2)C(=O)NCC2(C)Cc3cc(F)cc1c3O2 (stereo partly shown)
2 = C[C@H]1CNC(=O)c2cnn3ccc(nc23)N[C@H](C)c2cc(F)ccc2O1 [repotrectinib, reference compound]
Prompt line: Of 1 and 2 , which shows the smaller clearance value? Bench note: the answer is the label of the chosen record.
Response line: 1

----------
- TGT: TRKA(G595R) (Homo sapiens, UniProt P04629, G595R)
- Construct: purchased SignalChem N16-12BG-10
- Sequence (P04629 33-796 G595R): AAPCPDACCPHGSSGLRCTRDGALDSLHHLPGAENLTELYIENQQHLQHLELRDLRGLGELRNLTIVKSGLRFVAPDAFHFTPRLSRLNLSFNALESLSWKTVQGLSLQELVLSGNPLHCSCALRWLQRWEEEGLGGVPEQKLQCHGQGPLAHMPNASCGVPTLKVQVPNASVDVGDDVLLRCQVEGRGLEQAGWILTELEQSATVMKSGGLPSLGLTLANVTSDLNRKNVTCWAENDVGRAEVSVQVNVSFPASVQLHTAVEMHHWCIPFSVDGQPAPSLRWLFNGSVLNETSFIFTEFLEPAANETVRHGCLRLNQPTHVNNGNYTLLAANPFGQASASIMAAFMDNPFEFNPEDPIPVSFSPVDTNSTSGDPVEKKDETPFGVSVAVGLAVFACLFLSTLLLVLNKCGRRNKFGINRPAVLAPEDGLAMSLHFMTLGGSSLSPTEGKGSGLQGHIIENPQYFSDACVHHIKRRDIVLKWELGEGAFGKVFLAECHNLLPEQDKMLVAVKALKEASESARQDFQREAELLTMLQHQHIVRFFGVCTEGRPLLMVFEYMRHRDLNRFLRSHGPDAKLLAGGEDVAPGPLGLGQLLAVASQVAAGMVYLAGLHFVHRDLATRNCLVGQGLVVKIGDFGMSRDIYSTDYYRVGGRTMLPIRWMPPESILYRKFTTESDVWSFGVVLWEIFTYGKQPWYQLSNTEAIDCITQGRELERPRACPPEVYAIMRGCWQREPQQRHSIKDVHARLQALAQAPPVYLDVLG
- TEST_DESCRIPTION: HTRF KinEASE-TK kinase activity inhibition assay, TRKA(G595R)
- Assay type: biochemical
- CONDITION_SET: ATP 7 µM
- Text: The following method was used to determine the inhibition degrees of the compounds of the present invention on the activity of recombinant human NTRK family kinase in vitro. […]
EXPERIMENTAL_READOUT: IC50 (nM)

C[C@H]1Nc2ccn3ncc(c3n2)C(=O)NCC2(CF)Cc3cc(F)cc1c3O2 (stereo partly drawn); 3.9
C[C@H]1Nc2ccn3ncc(c3n2)C(=O)NCC2(C)Cc3cc(Cl)cc1c3O2 (stereo partly drawn); 4.97
C[C@H]1Nc2ccn3nc(N)c(c3n2)C(=O)NC[C@@]2(C)Cc3cc(F)cc1c3O2; 5.4
C[C@H]1Nc2ccc3ncc(n3n2)C(=O)NC[C@@]2(C)Cc3cc(F)cc1c3O2; 8.6
C[C@H]1Nc2ccn3ncc(c3n2)C(=O)NC[C@@]2(C)Cc3cc(F)cc1c3O2; 2.03
C[C@H]1Nc2ccn3ncc(c3n2)C(=O)NC[C@]2(C)COc3cc(F)cc1c3O2; 15.3
C[C@H]1Nc2ccn3ncc(c3n2)C(=O)NCC[C@H]2Cc3cc(F)cc1c3O2; 3.31
C[C@H]1Nc2ccn3ncc(c3n2)C(=O)NCCC2=Cc3cc(F)cc1c3O2; 11.3

P = C[C@H]1Nc2ccn3ncc(c3n2)C(=O)NCC2Cc3cc(F)cc1c3O2 (stereo partly drawn)
Q = C[C@H]1Nc2ccn3ncc(c3n2)C(=O)NCC2(C)Cc3cc(F)cc1c3O2 (stereo partly drawn)
R = C[C@H]1Nc2ccn3ncc(c3n2)C(=O)NCC2(CO)Cc3cc(F)cc1c3O2 (stereo partly drawn)
S = C[C@H]1Nc2ccn3ncc(c3n2)C(=O)NC[C@@H]2COc3cc(F)cc1c3O2
Prompt line: With regard to IC50, arrange the entries in ascending order, please. Write the labels out in the order the request specifies.
Response line: S, Q, P, R
